molecular target: SHP2 N-SH2 domain T42A; assay: log2 enrichment relative to wild-type ITIM peptide; higher = stronger binding
The following binders are listed with their measured log2 enrichment values.
Note: the reply should be a number with no unit written.

binder	log2 enrichment
VFSKDYGELDF [PD-1 ITIM pTyr223 peptide variant V221K]	-1
VFMVDYGELDF [PD-1 ITIM pTyr223 peptide variant S220M]	-0.0956
VFSVDYGELWF [PD-1 ITIM pTyr223 peptide variant D227W]	-0.71
VTSVDYGELDF [PD-1 ITIM pTyr223 peptide variant F219T]	0.41
PFSVDYGELDF [PD-1 ITIM pTyr223 peptide variant V218P]	0.0339

Next, consider the following binder.
query: Name the reported log2 enrichment value associated with the binder VFSVDYGKLDF [PD-1 ITIM pTyr223 peptide variant E225K]
result: 0.303
